Experiment: Plasma clearance in rat at 1 mL/kg, iv
Conditions: Sprague-Dawley
Assay readout: clearance (L/h/kg)

>>> recorded_result("N#CCNC(=O)[C@@H]1CCCC[C@H]1c1ccccc1-c1ccc(F)cc1 (racemic)")
3
>>> recorded_result("N#CCNC(=O)[C@@H]1CCCC[C@H]1CS(=O)(=O)c1ccc(OC(F)(F)F)cc1 (racemic)")
2.52
>>> recorded_result("CSc1ccc(-c2ccccc2[C@@H]2CCCC[C@H]2C(=O)NCC#N)cc1 (racemic)")
2.1
>>> recorded_result("CSc1ccc(S(=O)(=O)C[C@@H]2CCCC[C@H]2C(=O)NCC#N)cc1 (mixture of isomers)")
2.28

###

Target: Cathepsin (B and K) (Homo sapiens) (UniProt P43235+P07858)
Sequence (P43235 whole entry, looked up, other chains not shown): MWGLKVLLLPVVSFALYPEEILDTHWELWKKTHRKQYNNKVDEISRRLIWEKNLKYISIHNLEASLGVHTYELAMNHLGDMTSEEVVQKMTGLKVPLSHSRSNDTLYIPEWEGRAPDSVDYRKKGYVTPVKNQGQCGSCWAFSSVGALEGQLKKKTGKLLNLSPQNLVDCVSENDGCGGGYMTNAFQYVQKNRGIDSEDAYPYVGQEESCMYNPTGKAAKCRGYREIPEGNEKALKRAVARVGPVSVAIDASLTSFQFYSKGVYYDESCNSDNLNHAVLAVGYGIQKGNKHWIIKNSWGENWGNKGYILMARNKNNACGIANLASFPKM
Experiment: Selectivity for Cathepsin B over Cathepsin K
Assay type: protein assay
Below, each entry is listed alongside its reported Selectivity ratio.
Assay readout: Selectivity ratio

>>> recorded_result("CSc1ccc(-c2ccccc2[C@@H]2CCCC[C@H]2C(=O)NCC#N)cc1 (racemic)")
"> 3800"
>>> recorded_result("N#CCNC(=O)[C@@H]1CCCC[C@H]1CSc1ccccc1 (racemic)")
31
>>> recorded_result("N#CCNC(=O)[C@@H]1CCCC[C@H]1CSc1ccc(N)cc1 (mixture of isomers)")
"> 990"
>>> recorded_result("CSc1ccc(-c2ccccc2C2CCC(F)CC2C(=O)NCC#N)cc1 (racemic; form 2)")
"> 2700"
>>> recorded_result("N#CCNC(=O)[C@@H]1CCCC[C@H]1CSc1ccc(F)cc1 (mixture of isomers)")
145
>>> recorded_result("N#CCNC(=O)[C@@H]1CCCC[C@H]1CSc1ccc(I)cc1 (relative stereo)")
"> 5800"
>>> recorded_result("N#CCNC(=O)[C@@H]1CCCC[C@H]1CSc1ccc(O)cc1 (racemic)")
880
>>> recorded_result("CSc1ccc(SC[C@@H]2CCCC[C@H]2C(=O)NCC#N)cc1 (racemic)")
"> 24000"
>>> recorded_result("CSc1ccc(-c2ccccc2C2CCC(F)CC2C(=O)NCC#N)cc1 (racemic; form 1)")
"> 2400"
>>> recorded_result("Cc1ccc(SC[C@@H]2CCCC[C@H]2C(=O)NCC#N)cc1 (racemic)")
380
>>> recorded_result("CSc1ccc(-c2ccccc2C2CCC(F)(F)CC2C(=O)NCC#N)cc1 (racemic)")
"> 120000"
>>> recorded_result("COc1ccc(SC[C@@H]2CCCC[C@H]2C(=O)NCC#N)cc1 (racemic)")
"> 3500"
>>> recorded_result("CSc1ccc(-c2ccccc2[C@@H]2CCC(F)(F)C[C@H]2C(=O)NCC#N)cc1")
"> 36000"
>>> recorded_result("CSc1ccc(-c2ccccc2C2CCC(Cl)(Cl)CC2C(=O)NCC#N)cc1 (racemic)")
"> 17000"
>>> recorded_result("N#CCNC(=O)[C@@H]1CCCC[C@H]1CSc1ccc(Br)cc1 (racemic)")
"> 3100"
>>> recorded_result("CSc1ccc(S(=O)(=O)C[C@@H]2CCCC[C@H]2C(=O)NCC#N)cc1 (mixture of isomers)")
2000
>>> recorded_result("N#CCNC(=O)[C@@H]1CCCC[C@H]1CSc1ccc(Cl)cc1 (racemic)")
"> 3400"

###

Below, each entry is listed alongside its reported CL/F.
Experiment: Plasma clearance in squirrel monkey at 1 mL/kg, po
Format: ADME, organism-based, Saimiri sciureus
Assay readout: CL/F

>>> recorded_result("CSc1ccc(-c2ccccc2[C@@H]2CCC(F)(F)C[C@H]2C(=O)NCC#N)cc1")
"17 mL/min/kg"
>>> recorded_result("CSc1ccc(-c2ccccc2C2CCC(F)CC2C(=O)NCC#N)cc1 (racemic; form 1)")
"21 mL/min/kg"

###

Experiment: Oral bioavailability in squirrel monkey at 1 mL/kg, po
Format: ADME, organism-based, Saimiri sciureus
Details: in vivo
Assay readout: bioavailability (%)

>>> recorded_result("CSc1ccc(-c2ccccc2[C@@H]2CCC(F)(F)C[C@H]2C(=O)NCC#N)cc1")
78
>>> recorded_result("CSc1ccc(-c2ccccc2C2CCC(F)CC2C(=O)NCC#N)cc1 (racemic; form 1)")
28

###

Below, each entry is listed alongside its reported bioavailability.
Test: Oral bioavailability in rats at 10 mL/kg, po
Assay type: ADME, organism-based
Conditions: Sprague-Dawley, rat, in vivo
Assay readout: bioavailability (%)

>>> recorded_result("CSc1ccc(-c2ccccc2[C@@H]2CCC(F)(F)C[C@H]2C(=O)NCC#N)cc1")
39
>>> recorded_result("CSc1ccc(-c2ccccc2C2CCC(F)(F)CC2C(=O)NCC#N)cc1 (racemic)")
53
>>> recorded_result("N#CCNC(=O)C1CC(F)(F)CCC1c1ccccc1-c1ccc(F)cc1 (racemic)")
26
>>> recorded_result("CSc1ccc(-c2ccccc2C2CCC(F)CC2C(=O)NCC#N)cc1 (racemic; form 1)")
88
>>> recorded_result("CSc1ccc(-c2ccccc2C2CCC(Cl)(Cl)CC2C(=O)NCC#N)cc1 (racemic)")
75

###

Molecular target: Cathepsin K (Homo sapiens, UniProt P43235)
Test: Inhibitory activity against humanized rabbit Cathepsin K
Below, each entry is listed alongside its reported IC50.
Assay readout: IC50

>>> recorded_result("N#CCNC(=O)[C@@H]1CCCC[C@H]1CSc1cccc(Cl)c1 (mixture of isomers)")
"0.2 µM"
>>> recorded_result("CSc1ccc(-c2ccccc2C2CCC(Cl)(Cl)CC2C(=O)NCC#N)cc1 (racemic)")
"0.00058 µM"
>>> recorded_result("N#CCNC(=O)[C@@H]1CCCC[C@H]1CSc1ccccc1 (racemic)")
"0.172 µM"
>>> recorded_result("CSc1ccc(SC[C@@H]2CCCC[C@H]2C(=O)NCC#N)cc1 (racemic)")
"0.0042 µM"
>>> recorded_result("CSc1ccc(-c2ccccc2[C@H]2CCC(F)(F)C[C@@H]2C(=O)NCC#N)cc1")
"0.0071 µM"
>>> recorded_result("N#CCNC(=O)[C@@H]1CCCC[C@H]1CSc1cc(Cl)ccc1Cl (racemic)")
"0.15 µM"
>>> recorded_result("N#CCNC(=O)[C@@H]1CCCC[C@H]1CSc1ccc(Cl)cc1 (racemic)")
"0.03 µM"
>>> recorded_result("N#CCNC(=O)[C@@H]1CCCC[C@H]1CSc1ncccn1 (racemic)")
"0.99 µM"
>>> recorded_result("CSc1ccc(-c2ccccc2[C@@H]2CCCC[C@H]2C(=O)NCC#N)cc1 (racemic)")
"0.0026 µM"
>>> recorded_result("N#CCNC(=O)[C@@H]1CCCC[C@H]1CSc1ncc[nH]1 (relative stereo)")
"0.41 µM"
>>> recorded_result("N#CCNC(=O)[C@@H]1CCCC[C@H]1CSc1cc(Cl)cc(Cl)c1 (racemic)")
"0.28 µM"
>>> recorded_result("N#CCNC(=O)[C@@H]1CCCC[C@H]1CSc1nnc(-c2ccncc2)o1 (relative stereo)")
"0.95 µM"

###

Target: Cathepsin (S and K) (Homo sapiens) (UniProt P25774+P43235)
Test: Selectivity for Cathepsin S over Cathepsin K
Type: protein assay
Below, each entry is listed alongside its reported Selectivity ratio.
Assay readout: Selectivity ratio

>>> recorded_result("CSc1ccc(-c2ccccc2[C@@H]2CCCC[C@H]2C(=O)NCC#N)cc1 (racemic)")
"> 3800"
>>> recorded_result("N#CCNC(=O)[C@@H]1CCCC[C@H]1CSc1ccc(I)cc1 (relative stereo)")
"> 5800"
>>> recorded_result("N#CCNC(=O)[C@@H]1CCCC[C@H]1CSc1ccc(Br)cc1 (racemic)")
"> 3100"

Reference source for all entries: ChEMBL document CHEMBL1149395
